System: HL-60 cells
run description: Cell cycle distribution by flow cytometry
Assay type: cell-based, human
recorded conditions: 50 μM, 24 h, Table 10
value kind: Cell Cycle Distribution G0/G1

COc1ccc(-c2oc3c(OC)c(OC)c(OC)c(O)c3c(=O)c2OC)cc1OC :: 51.42 ± 1.13
COc1ccc(-c2cc(=O)c3c(OC)c(OC)c(OC)c(OC)c3o2)cc1OC [Compound A, 5,6,7,8,3′,4′-hexamethoxyflavone, reference compound] :: 64.40 ± 0.49
COc1ccc(-c2cc(=O)c3c(O)c(OC)c(OC)c(OC)c3o2)cc1O :: 2.63 ± 2.50
COc1ccc(-c2oc3c(OC)c(OC)c(OC)c(OC)c3c(=O)c2OC)cc1OC [D, 3,5,6,7,8,3,4-heptamethoxyflavone, reference compound] :: 80.79 ± 0.71
COc1cc(-c2cc(=O)c3c(O)c(OC)c(OC)c(OC)c3o2)cc(OC)c1OC :: 37.64 ± 1.09

Could I get Cell Cycle Distribution G0/G1 for every one of these entries?
1. COc1ccc(-c2cc(=O)c3c(O)c(OC)c(OC)c(OC)c3o2)cc1OC
2. COc1c(OC)c(OC)c2c(=O)cc(-c3ccc(O)c(O)c3)oc2c1OC
3. COc1ccc(-c2oc3c(OC)c(OC)c(OC)c(OC)c3c(=O)c2O)cc1OC
4. COc1ccc(-c2cc(=O)c3c(OC)c(OC)c(OC)c(OC)c3o2)cc1O

1. 49.22 ± 0.13
2. 62.04 ± 1.19
3. 41.48 ± 0.85
4. 50.23 ± 1.94

Could I get Cell Cycle Distribution G0/G1 for every one of these entries?
1. COc1cc(-c2cc(=O)c3c(OC)c(OC)c(OC)c(OC)c3o2)cc(OC)c1OC [F, 5,6,7,8,3′,4′,5′-heptamethoxyflavone, reference compound]
2. COc1cc(-c2cc(=O)c3c(OC)c(OC)c(OC)c(OC)c3o2)ccc1O

1: 60.39 ± 0.23; 2: 52.35 ± 1.09

###

Tested on: HL-60 cells
run description: Cell cycle distribution by flow cytometry
Type: cell-based, human
recorded conditions: 10 μM, 24 h, Table 10
Protocol: The human cancer cells (2×10^5) were cultured in 60-mm Petri dishes and incubated for 24 h. […] Fluorescence emitted from the propidium iodide-DNA complex was quantitated after excitation of the fluorescent dye by FACScan cytometry (Becton Dickinson, San Jose, Calif.). […] Compounds A-K were evaluated in terms of their effects in arresting cell cycle progression by observing cell cycle phase distribution in cells treated with the compounds. […]
value kind: Cell Cycle Distribution S
One number for each entry.

COc1cc(-c2cc(=O)c3c(O)c(OC)c(OC)c(OC)c3o2)cc(OC)c1OC [E] :: 54.01
COc1ccc(-c2oc3c(OC)c(OC)c(OC)c(OC)c3c(=O)c2OC)cc1OC [D, 3,5,6,7,8,3,4-heptamethoxyflavone, reference compound] :: 42.12

# input for lookup
Quick check: Cell Cycle Distribution S on HL-60 cells, item COc1ccc(-c2cc(=O)c3c(OC)c(OC)c(OC)c(OC)c3o2)cc1OC [Compound A, 5,6,7,8,3′,4′-hexamethoxyflavone, reference compound] ?
46.88

###

System: AGS cells
run description: Cell cycle distribution by flow cytometry
Assay type: cell-based, human
recorded conditions: 50 μM, 24 h, Table 11
value kind: Cell Cycle Distribution S
Numbers only.

Examples from the recorded data:
COc1cc(-c2cc(=O)c3c(OC)c(OC)c(OC)c(OC)c3o2)cc(OC)c1OC [F, 5,6,7,8,3′,4′,5′-heptamethoxyflavone, reference compound] :: 21.08
COc1cc(-c2cc(=O)c3c(OC)c(OC)c(OC)c(OC)c3o2)ccc1O :: 14.78

Quick check: Cell Cycle Distribution S on AGS cells, item COc1c(OC)c(OC)c2c(=O)cc(-c3ccc(O)c(O)c3)oc2c1OC ?
19.31
